Taken from patent US6410594B1.

- Tested on: H1N9 Influenza Neuraminidase (Influenza A virus, UniProt P03472)
- Sequence (P03472 83-470 limits assumed): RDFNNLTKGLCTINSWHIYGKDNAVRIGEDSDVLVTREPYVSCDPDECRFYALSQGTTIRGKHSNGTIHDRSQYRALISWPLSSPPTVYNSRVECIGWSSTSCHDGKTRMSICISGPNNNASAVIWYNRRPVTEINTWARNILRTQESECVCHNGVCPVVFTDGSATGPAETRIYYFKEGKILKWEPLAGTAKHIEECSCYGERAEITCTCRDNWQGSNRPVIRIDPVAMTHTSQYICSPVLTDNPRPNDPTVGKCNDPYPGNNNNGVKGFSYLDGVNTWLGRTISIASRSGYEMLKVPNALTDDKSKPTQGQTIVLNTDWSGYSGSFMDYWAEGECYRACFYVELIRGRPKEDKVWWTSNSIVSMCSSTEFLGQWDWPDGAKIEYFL
- Method description: biochemical
- Test parameters: 10 min at 37° C.; read-out: Inhibition of H1N9 Influenza Neuraminidase IC50
pIC50: −log10 of the molar value.
Returns the class for an entry based on its pIC50. Class ranges: LOW = under 4, MEDIUM = from 4 up to 5, HIGH = 5 and over

CC(=O)NC(C(O)C(O)CO)[C@H]1CC(C(=O)O)C[C@@H]1NC(=N)N (single isomer, unassigned; isomer b) [Example 13] ... HIGH
CC(=O)NC(C(O)C(O)CO)[C@H]1CC(C(=O)O)C[C@@H]1NC(=N)N (single isomer, unassigned; isomer b) [Example 14] ... MEDIUM

Could you now look at the following molecule, please?
Record N=C(N)NC[C@@H]1C[C@H](C(=O)O)C[C@H]1NC(=N)N (relative stereo) — which class? LOW
